The values you see were collected from patent US20230017786A1.

Molecular target: human NMDA receptor GluN1-GluN2C (Homo sapiens, UniProt Q05586+Q14957)
Construct: expressed in transfected cells; host or cells: CHO
Sequence (Q14957 20-1233, other chains not shown): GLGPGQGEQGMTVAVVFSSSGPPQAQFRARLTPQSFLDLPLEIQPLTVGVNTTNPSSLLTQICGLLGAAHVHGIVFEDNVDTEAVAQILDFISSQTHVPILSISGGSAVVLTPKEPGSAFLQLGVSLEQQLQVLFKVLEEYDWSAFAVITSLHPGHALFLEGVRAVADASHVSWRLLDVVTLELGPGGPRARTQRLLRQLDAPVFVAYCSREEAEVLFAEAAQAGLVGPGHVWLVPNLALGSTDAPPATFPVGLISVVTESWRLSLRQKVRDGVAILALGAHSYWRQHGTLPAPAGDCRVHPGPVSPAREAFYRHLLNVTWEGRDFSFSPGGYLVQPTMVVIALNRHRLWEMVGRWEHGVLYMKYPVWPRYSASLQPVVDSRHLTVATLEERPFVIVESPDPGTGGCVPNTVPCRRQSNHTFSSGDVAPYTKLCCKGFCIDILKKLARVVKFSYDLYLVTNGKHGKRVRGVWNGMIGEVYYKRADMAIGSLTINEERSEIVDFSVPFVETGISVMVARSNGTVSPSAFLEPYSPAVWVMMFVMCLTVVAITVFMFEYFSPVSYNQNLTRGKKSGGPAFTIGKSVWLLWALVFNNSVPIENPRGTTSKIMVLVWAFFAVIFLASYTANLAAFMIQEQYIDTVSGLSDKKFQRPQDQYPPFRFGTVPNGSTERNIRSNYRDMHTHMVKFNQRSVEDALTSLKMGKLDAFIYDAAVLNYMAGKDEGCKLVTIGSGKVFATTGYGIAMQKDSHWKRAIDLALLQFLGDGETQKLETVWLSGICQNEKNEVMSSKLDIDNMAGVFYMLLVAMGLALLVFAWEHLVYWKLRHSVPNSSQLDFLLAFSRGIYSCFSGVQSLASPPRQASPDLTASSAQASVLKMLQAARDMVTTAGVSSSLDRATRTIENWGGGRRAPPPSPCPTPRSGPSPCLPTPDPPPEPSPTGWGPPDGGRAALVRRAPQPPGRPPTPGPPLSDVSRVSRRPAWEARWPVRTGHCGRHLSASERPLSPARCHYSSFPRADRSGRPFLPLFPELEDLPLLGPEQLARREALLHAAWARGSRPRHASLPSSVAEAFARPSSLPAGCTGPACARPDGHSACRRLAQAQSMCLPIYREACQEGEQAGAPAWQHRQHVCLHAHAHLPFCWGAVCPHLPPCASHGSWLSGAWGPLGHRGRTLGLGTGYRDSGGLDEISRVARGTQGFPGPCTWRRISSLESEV
Assay: FLIPR calcium assay, test item effect on L-glutamate CRC, GluN1-GluN2C-CHO
Format: cell-based
Settings: with test item 49 nM
Structures can show the parent of a compound that is named as a salt.
As shown below, each of these compounds has a reported L-glutamate CRC LogEC50 value.
Response field accepts a number only; no unit should be typed.

# example entries with known answers
* CNC1(c2ccccc2Cl)CCCCC1=O (racemic) [(±)-Ketamine, (±)-ketamine hydrochloride] | −6.9
* CC12CC3CC(C)(C1)CC(N)(C3)C2 [Memantine, memantine hydrochloride] | −6.8
* COc1ccc2c(c1)[C@]13CCCC[C@@H]1[C@H](C2)N(C)CC3 [Dextromethorphan, hydrobromide monohydrate] | −7.0

Next, consider the following compound.
What value of L-glutamate CRC LogEC50 has been recorded for this entry: CCC(=O)C(C[C@H](C)N(C)C)(c1ccccc1)c1ccccc1 −6.8
